Molecular target: Sterol O-acyltransferase 1 (Homo sapiens)
Sequence (P35610 whole entry): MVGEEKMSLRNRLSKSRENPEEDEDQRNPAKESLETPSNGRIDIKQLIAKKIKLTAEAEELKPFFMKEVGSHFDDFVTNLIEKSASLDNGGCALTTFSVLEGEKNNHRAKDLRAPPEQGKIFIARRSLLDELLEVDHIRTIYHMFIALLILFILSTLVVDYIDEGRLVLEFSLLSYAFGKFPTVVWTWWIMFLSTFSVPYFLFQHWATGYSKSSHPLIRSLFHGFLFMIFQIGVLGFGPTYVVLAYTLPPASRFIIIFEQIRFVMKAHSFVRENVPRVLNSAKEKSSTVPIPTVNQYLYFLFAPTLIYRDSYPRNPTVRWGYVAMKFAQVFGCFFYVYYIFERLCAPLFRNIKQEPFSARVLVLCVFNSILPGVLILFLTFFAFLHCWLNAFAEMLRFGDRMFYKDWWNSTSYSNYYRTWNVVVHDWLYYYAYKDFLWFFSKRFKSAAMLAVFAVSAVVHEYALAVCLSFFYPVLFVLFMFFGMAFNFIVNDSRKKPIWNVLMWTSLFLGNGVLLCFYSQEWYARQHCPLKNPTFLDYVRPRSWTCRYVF
Experiment: Inhibitory activity against acyl-CoA:cholesterol acyltransferase (ACAT)
reported-metric: IC50

Which value of IC50 has been reported for `COc1ccc(-c2cc3c(c(=O)o2)C[C@]2(O)[C@@]4(C)C(=O)C=CC(C)(C)[C@]4(O)CC[C@@]2(C)O3)cc1OC` in the records?
> 50 µM

Which value of IC50 has been reported for `COc1cc(-c2cc3c(c(=O)o2)C[C@]2(O)[C@@]4(C)C(=O)C=CC(C)(C)[C@]4(O)CC[C@@]2(C)O3)cc(OC)c1OC` in the records?
> 50 µM

----------
Molecular target: UniProtKB P22303
Sequence (P22303 whole entry): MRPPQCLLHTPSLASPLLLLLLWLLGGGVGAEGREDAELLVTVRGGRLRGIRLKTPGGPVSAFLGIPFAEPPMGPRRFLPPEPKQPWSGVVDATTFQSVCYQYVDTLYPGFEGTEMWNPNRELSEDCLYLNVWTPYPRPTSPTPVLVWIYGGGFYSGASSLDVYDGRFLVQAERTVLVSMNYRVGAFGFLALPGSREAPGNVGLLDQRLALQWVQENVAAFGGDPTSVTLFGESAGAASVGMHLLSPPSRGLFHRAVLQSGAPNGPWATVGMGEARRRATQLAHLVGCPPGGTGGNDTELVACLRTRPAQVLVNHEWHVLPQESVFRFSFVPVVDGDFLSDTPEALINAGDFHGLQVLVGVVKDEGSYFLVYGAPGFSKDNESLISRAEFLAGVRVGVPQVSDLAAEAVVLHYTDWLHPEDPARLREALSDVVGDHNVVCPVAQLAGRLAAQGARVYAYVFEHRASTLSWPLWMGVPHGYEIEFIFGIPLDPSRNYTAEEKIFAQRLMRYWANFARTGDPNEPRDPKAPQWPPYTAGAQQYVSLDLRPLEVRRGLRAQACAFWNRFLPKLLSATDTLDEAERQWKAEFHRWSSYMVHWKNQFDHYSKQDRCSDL
Assay: Inhibitory activity against Acetylcholinesterase
Please provide measured IC50 for the entries that follow.

Which value of IC50 has been reported for COc1ccc(-c2cc3c(c(=O)o2)C(=O)C2[C@@]4(C)CC[C@H](O)[C@@](C)(CO)C4C[C@H](O)[C@@]2(C)O3)cc1OC (some centres not stated) in the records?
58 µM

Which value of IC50 has been reported for C[C@]12CC[C@H](O)[C@@](C)(CO)C1C[C@H](O)[C@@]1(C)Oc3cc(-c4cccnc4)oc(=O)c3C(=O)C21 (some centres not stated) in the records?
35 µM

Which value of IC50 has been reported for C[C@]12CC[C@H](O)[C@@](C)(CO)C1C[C@H](O)[C@@]1(C)Oc3cc(-c4ccc(Cl)nc4)oc(=O)c3C(=O)C21 (some centres not stated) in the records?
80 µM

Which value of IC50 has been reported for `COc1ccc(-c2cc3c(c(=O)o2)C[C@]2(O)[C@@]4(C)C(=O)C=CC(C)(C)[C@]4(O)CC[C@@]2(C)O3)cc1OC` in the records?
0.001 µM

Which value of IC50 has been reported for C[C@]12CC[C@H](O)[C@@](C)(CO)C1C[C@H](O)[C@@]1(C)Oc3cc(-c4ccccc4)oc(=O)c3C(=O)C21 (some centres not stated) in the records?
99 µM

Which value of IC50 has been reported for COc1cccc(-c2cc3c(c(=O)o2)C(=O)C2[C@@]4(C)CC[C@H](O)[C@@](C)(CO)C4C[C@H](O)[C@@]2(C)O3)c1 (some centres not stated) in the records?
> 93 µM

Which value of IC50 has been reported for C[C@]12CC[C@H](O)[C@@](C)(CO)C1C[C@H](O)[C@@]1(C)Oc3cc(-c4ccncc4)oc(=O)c3C(=O)C21 (some centres not stated) in the records?
7.9 µM
